Measured %Inh, listed per entry for reference.
- Test system: ICK;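 note: KINOMEscan kinase panel screen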
- condition_details: concentration: 1 μM, replicates: in singlicate; n = 1

# compound, target_system, %Inh / %
measured = [
    ("COc1ccc(CNC(=O)NC2CCN(c3ccnc(Nc4cc(OC)c(OC)c(OC)c4)n3)C2)cc1 (stereo not shown)", "ICK", 8),
    ("Cn1ccc2ncnc(Oc3ccc(Nc4nc5ccccc5[nH]4)cc3)c21", "ICK", 0),
    ("CC(=O)Nc1nc2cnc(Nc3cc(NC(=O)c4cccc(CCC#N)c4)ccc3C)nc2s1", "ICK", 0),
    ("Fc1cc(Cl)ccc1Nc1ccnc2cc(I)ccc12", "ICK", 1),
    ("Cc1ccccc1-n1cnc2c(N)ncnc21", "ICK", 0),
    ("COc1ccc2nc(-c3cccc(C)n3)nc(Nc3ccncc3)c2c1", "ICK", 0),
    ("Cc1cccc(-c2nc(C)cc(Nc3ccncc3)n2)n1", "ICK", 0),
    ("CN1C(=O)C(Nc2ccc(Cl)c(C(=O)O)c2)=C(c2ccc(Cl)cc2)C1=O", "ICK", 20),
    ("Cc1c(Cn2ccn3c(=O)cc(N4CCOCC4)nc23)cccc1C(F)(F)F", "ICK", 0),
    ("O=S(=O)(c1ccc(-c2ccnc3[nH]ccc23)cc1)N1CCCC1", "ICK", 0),
    ("Cc1ccc(C(=O)Nc2ccc(Nc3ccnc4cc(-c5ccccn5)ccc34)cc2O)cc1.Cl", "ICK", 0),
    ("O=C(Nc1n[nH]c2nc(-c3nccs3)c(Br)cc12)C1CC1", "ICK", 61),
    ("O=C(Nc1n[nH]c2nc(-c3nccs3)c(Br)cc12)C1CCCC1", "ICK", 85),
    ("Cc1cc(NCC(c2ccccc2)c2ccccc2)nc(NCc2ccc(C(F)(F)F)cc2)n1", "ICK", 0),
    ("CC1=C(C(=O)Nc2cc3cn[nH]c3cc2F)C(c2ccc(C(F)(F)F)cc2)CC(=O)N1 (stereo not shown)", "ICK", 13),
    ("Cc1cc(N2Cc3ccccc3C2)nc(Nc2ccc(S(=O)(=O)N3CCOCC3)cc2)n1.Cl", "ICK", 99.9),
    ("NC(=O)c1nnc2ccccc2c1N", "ICK", 13),
    ("Cc1cc(-c2ccc3c(c2)CC[C@@H](N[C@@H](C)c2ccccc2)C3)cnc1N.Cl", "ICK", 0),
    ("CCCc1ccc(S(=O)(=O)NC2CCN(c3ccnc(Nc4ccc(F)cc4)n3)C2)cc1 (stereo not shown)", "ICK", 0),
    ("Cl.c1ccc(-c2n[nH]cc2-c2ccnc(-c3ccc(CN4CCOCC4)cc3)c2)nc1", "ICK", 0),
    ("Cn1ccc2ncnc(Oc3cccc(C(=O)Nc4ccccc4)c3)c21", "ICK", 8),
    ("O=C(Nc1ccc2c(c1)OCO2)NC1CCN(c2ccnc(Nc3ccc(F)cc3)n2)C1 (stereo not shown)", "ICK", 19),
    ("COc1cc(Nc2nccc(N3CCC(NC(=O)Nc4cc(C)ccc4C)C3)n2)cc(OC)c1OC (stereo not shown)", "ICK", 22),
    ("Fc1cc(Cl)ccc1Nc1ccnc2cc(-c3ccc(CN4CCCCC4)o3)ccc12", "ICK", 0),
    ("Cc1cccc(-c2nc(Nc3cccc(C(N)=O)c3)c3ccccc3n2)n1", "ICK", 0),
    ("CS(=O)(=O)c1ccc(-c2c(-c3ncn[nH]3)sc(N3CCOCC3)c2C#N)cc1", "ICK", 0),
    ("Cn1cncc1-c1ccc2ncnc(Nc3ccc(OCc4ccccc4)cc3)c2c1", "ICK", 0),
    ("Cl.Oc1ccc(-c2nc(-c3ccccc3)[nH]c2-c2ccncc2)cc1", "ICK", 3),
    ("CS(=O)(=O)c1ccc(-c2nc3n(c2-c2ccncc2)CCC3)cc1", "ICK", 100),
    ("O=C1NC(=O)C(N2CCc3ccccc32)=C1c1ccccc1Cl", "ICK", 17),
    ("O=c1cc(N2CCOCC2)nc2n(Cc3cccc(Cl)c3Cl)ccn12", "ICK", 3),
    ("Cl.NC(=O)c1cccc(Nc2nccc(Nc3ccc(Oc4cccc(Cl)c4)c(Cl)c3)n2)c1", "ICK", 85),
    ("Cc1ccc(NC(=O)Nc2cc(C(C)(C)C)nn2-c2ccccc2)cc1", "ICK", 23),
    ("Cn1ccc2ncnc(Oc3ccc(NC(=O)Nc4ccccc4)cc3)c21", "ICK", 0),
    ("COC(=O)c1c(-c2ccccc2)c2cc(OC)ccc2c(=O)n1Cc1ccccc1", "ICK", 0),
    ("COc1ccccc1CNC(=O)c1cc(C(=O)c2ccccc2C)c[nH]1", "ICK", 11),
    ("Cc1cccc(-c2nc(-c3ccc(S(C)(=O)=O)cc3)sc2-c2ccnc(NCCc3ccccc3)c2)c1", "ICK", 0),
]

From: paper PMC5540273
